Sourced from PubChem BioAssay (NCI)

system: NCI/ADR-RES ovarian; experiment: NCI-60 one-dose screen, 48 h (100 = growth as untreated, 0 = no growth, -100 = all killed); details: 10 µM unless noted
The panel holds about 83,000 compounds, 20% with a hit somewhere; the sample as a whole holds those more often.
Readout Kind: growth (%)
Field format: number, assumed %, no unit text.

Worked cases, growth given:
// query growth value for entry COC(=O)[C@@H]1CC[C@]2(C)[C@H](CC[C@@H]3O[C@@]32C)[C@@]1(C)CC(=O)c1ccoc1
103

Same for O=c1ccc2cc3ccccc3cc2[nH]1
93

Same for Cc1cc(Nc2nc(N3CCOCC3)nc3ccccc23)n[nH]1
86.3

Same for CCCCCCCCCCCCCCCCCCSC1=CC(=O)C(OC)=C(OC)C1=O
91.7

Same for O=C1c2ccccc2-c2nccc3cc(Cl)nc1c23
69

Same for COc1ccc(/C=C/C(=O)c2c(O)c(C)c(O)c3c2OC2=CC(O)=C(C(C)=O)C(=O)[C@]23C)cc1
-13.5

Same for CC[C@H](Nc1cc(C)nc(N)n1)c1nc2cccc(NCc3ccc(C(=O)NO)cc3)c2c(=O)n1-c1ccccc1
90.6

Same for C/C(Cc1ccc(Cl)cc1)=C(\c1ccc(OCCN2CCCCCC2)cc1)c1ccc(OC(=O)C2CCCCC2)cc1
70.4

Turning now to a further record.
// query growth value for entry O=[N+]([O-])c1cccc(-c2nc3sccn3c2-c2ccnc(NCCCNS(=O)(=O)c3ccc(F)cc3)n2)c1
-15.5
